Value source: patent US20230096051A1

Procedure Summary: In vivo rat tracer distribution and brain uptake (LC-MS/MS)
Parameters: species or system Sprague-Dawley rats
Measurement Setup: Sprague-Dawley, hippocampus, iv, 10 μg/kg i.v., 5 min, read-out: Mean tracer concentration ± SEM, Hippocampus
Procedure: Stock Formulation: Prepare a tracer stock solution at 0.5 mg/mL in 25% HP-BCD/PW (corrected for salt weight). Vortex thoroughly for 30 sec and place in bath sonication for 30 mins. Confirm the stock formulation is a clear solution or homogeneous suspension. […] ACN containing 0.1% HCOOH is added to each tissue sample at a volume of four times the weight of the tissue sample (e.g., Add 600 μL ACN to a 150 mg brain tissue). […] This solution is mixed thoroughly and analyzed via LC/MS/MS for tracer compound. […]
Entries and their measured concentration at 5 min follow.
Value Type: concentration at 5 min (ng/g)

Cc1cc(N2CCC2)cc(OCc2ccc([C@@H](C)[C@@]3(C)C(=O)NC[C@@H]3CF)cc2)n1; 3.52
Cc1cc(N2CC(F)C2)cc(OCc2ccc([C@@H](C)[C@@]3(C)C(=O)NC[C@@H]3C)cc2)n1; 7.66
Cc1cc(N2CC(F)C2)cc(OCc2ccc([C@@H](C)[C@@]3(C)C(=O)NC[C@@H]3CF)cc2)n1; 2.9

====

Procedure Summary: In vivo rat tracer distribution and brain uptake (LC-MS/MS)
Set-up: species or system Sprague-Dawley rats
Measurement Setup: Sprague-Dawley, brain stem, iv, 10 μg/kg i.v., 40 min, read-out: Mean tracer concentration ± SEM, Brain Stem
Entries and their measured concentration at 40 min follow.
Value Type: concentration at 40 min (ng/g)

Cc1cc(N2CC(F)C2)cc(OCc2ccc([C@@H](C)[C@@]3(C)C(=O)NC[C@@H]3C)cc2)n1 [Example 2]; 1.08
Cc1cc(N2CC(F)C2)cc(OCc2ccc([C@@H](C)[C@@]3(C)C(=O)NC[C@@H]3CF)cc2)n1 [Example 3]; 0.42
Cc1cc(N2CCC2)cc(OCc2ccc([C@@H](C)[C@@]3(C)C(=O)NC[C@@H]3CF)cc2)n1 [Example 1]; 0.41
